target: Cbl-b (Homo sapiens (Human)); assay: Cbl-b LCK Ub TR-FRET assay (Cbl-b Lck HTRF); type: biochemical; conditions: ratio C-cbl Lck HTRF IC50 / Cbl-b Lck HTRF IC50
fold-selectivity (Cbl-b over C-cbl) values, listed per item
The answer is to be given in x; state only the numeric part.

# fold-selectivity (Cbl-b over C-cbl) of Cn1cnnc1[C@H](c1cccc(N2Cc3c(cc(CNC4(C)CCC4)cc3C(F)(F)F)C2=O)c1)C1(F)COC1 (single isomer, unassigned) [Compound 381] = 1.9

* * *

pIC50 values, listed per item
molecular target: Cbl-b (Homo sapiens (Human)); assay: Cbl-b LCK Ub TR-FRET assay (Cbl-b Lck HTRF); format: biochemical; conditions: Cbl-b LCK Ub TR-FRET
Quick note: pIC50 means taking -log10 of the concentration in moles per liter.

# pIC50 of CCNc1cc([C@]2(c3nncn3C)C[C@H](C)C2)cc(N2Cc3c(cc(CNC4(C)CCC4)cc3C(F)(F)F)C2=O)n1 [Compound 6] = 7.96

# pIC50 of Cn1cnnc1[C@H](c1cccc(N2Cc3c(cc(CNC4(C)CCC4)cc3C(F)(F)F)C2=O)c1)n1ccnc1 (single isomer, unassigned) [Compound 345] = 5.62

# pIC50 of CC(=O)N(C)[C@H](c1cccc(N2Cc3c(cc(CNC4(C)CCC4)cc3C(F)(F)F)C2=O)c1)c1nncn1C (single isomer, unassigned) [Compound 399] = 6.28

# pIC50 of Cn1cnnc1[C@H](c1cccc(N2Cc3c(cc(CNC4(C)CCC4)cc3C(F)(F)F)C2=O)c1)N1CCC1 (single isomer, unassigned) [Compound 32] = 5.42

* * *

fold-selectivity (Cbl-b over C-cbl) values, listed per item
molecular target: UniProt Q13191; assay: Cbl-b LCK Ub TR-FRET assay (Cbl-b Lck HTRF); assay type: biochemical; conditions: ratio C-cbl Lck HTRF IC50 / Cbl-b Lck HTRF IC50
The answer is to be given in x; state only the numeric part.

Here's what some known entries look like.
Cn1cnnc1[C@@H](C[C@@H]1CCOC1)c1cccc(N2Cc3c(cc(CNC4(C)CCC4)cc3C(F)(F)F)C2=O)c1    1.0
Cn1cnnc1[C@H](c1cccc(N2Cc3c(cc(CNC4(C)CCC4)cc3C(F)F)C2=O)c1)C1COC1    2.6
Cn1cnnc1[C@]1(c2cccc(N3Cc4c(cc(CNC5(C)CCC5)cc4C(F)(F)F)C3=O)c2)C[S@+]([O-])C1    1.9
CO[C@H]1C[C@](c2cc(NC3CCCC3)nc(N3Cc4c(cc(CNC5(C)CCC5)cc4C(F)(F)F)C3=O)c2)(c2nncn2C)C1 [Compound 9]    8.4
CC[C@@H](NC1(C)CCC1)c1cc2c(c(C(F)(F)F)c1)CN(c1cccc([C@H](c3nncn3C)C3COC3)c1)C2=O    4.5

With those in mind, consider the next molecule.
# fold-selectivity (Cbl-b over C-cbl) of COC1CC([C@@H](c2cccc(N3Cc4c(cc(CNC5(C)CCC5)cc4C(F)(F)F)C3=O)c2)c2nncn2C)C1 (single isomer, unassigned) [Compound 133] = 4.9

* * *

biological target: Human Cbl-b (residues 40-426) (Homo sapiens (Human)); test: Cbl-b SPR assay; assay type: binding; settings: C-cbl SPR Kd vs Cbl-b SPR Kd
Sequence (Q13191 40-426): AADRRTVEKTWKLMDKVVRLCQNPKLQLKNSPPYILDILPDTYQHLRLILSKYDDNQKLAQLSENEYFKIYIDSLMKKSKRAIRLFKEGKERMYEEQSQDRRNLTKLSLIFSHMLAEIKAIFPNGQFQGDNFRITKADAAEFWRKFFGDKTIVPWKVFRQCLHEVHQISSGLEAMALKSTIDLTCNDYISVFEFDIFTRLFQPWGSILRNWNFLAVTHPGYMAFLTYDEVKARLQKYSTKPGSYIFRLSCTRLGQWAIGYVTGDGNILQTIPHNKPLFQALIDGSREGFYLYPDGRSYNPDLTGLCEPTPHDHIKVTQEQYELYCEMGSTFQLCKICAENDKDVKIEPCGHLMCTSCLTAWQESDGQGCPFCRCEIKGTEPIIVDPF
Fold of selectivity values, listed per item
The answer is to be given in ×; state only the numeric part.

CO[C@H]1C[C@](c2cccc(N3Cc4c(cc(CNC5CCC5)cc4C(F)(F)F)C3=O)c2)(c2nncn2C)C1    7.7
CO[C@H]1C[C@](c2cccc(N3Cc4c(cc(CN5CC(O)C5)cc4C(F)(F)F)C3=O)c2)(c2nncn2C)C1    5.3
CO[C@H]1C[C@](c2cccc(N3Cc4c(cc(CNCC(C)(C)C)cc4C(F)(F)F)C3=O)c2)(c2nncn2C)C1    18

With those in mind, consider the next compound.
# Fold of selectivity of `C=CCNc1cc(N2Cc3c(cc(CNC4(C)CCC4)cc3C(F)(F)F)C2=O)cc([C@]2(c3nncn3C)C[C@@H](OC)C2)c1` = 12
